Can you tell me ABUTH (Abutilon theophrasti) damage score for the items I'm about to list?
test system: a variety of test species; assay: Post-emergence herbicidal activity; type: in vivo; parameters: key: 0 = no damage to plant, 5 = total damage to plant; details: rate 1000 g/ha, evaluated after 13 days

Recorded results for 5 molecules are shown here.
> print(dat)
                                   molecule  result
1  COC1=C(C)C(=O)N(c2cc(Cl)ncn2)C1O (racemic)       2
2  CCOC(=O)c1cnc(N2C(=O)C(C)=C(Cl)C2O)cc1Cl (stereo not shown)       1
3  CC1=C(Cl)C(O)N(c2cc(C(F)(F)F)ncn2)C1=O (stereo not shown)       0
4  COC1=C(C)C(=O)N(c2cc(C(C)(C)F)c(Cl)nn2)C1O (stereo not shown)       5
5  COC1=C(C)C(=O)N(c2cc(C(F)(F)F)ncn2)C1O (racemic)       5

Value sought for every listed molecule: ABUTH (Abutilon theophrasti) damage score.
1. COC1=C(C)C(=O)N(c2cc(C(F)(F)F)c(-c3ccc(F)cc3F)cn2)C1O (stereo not shown)
2. CC1=C(Cl)C(O)N(c2nccc(C(C)(C)C)n2)C1=O (racemic)
3. CC1=C(Cl)C(O)N(c2cc(Cl)c(Cl)cn2)C1=O (stereo not shown)
4. COC1=C(C)C(=O)N(c2cc(C(F)(F)Cl)ccn2)C1O (stereo not shown)
5. CC1=C(Cl)C(O)N(c2ccc(OC(F)(F)F)cn2)C1=O (stereo not shown)

Ans.
[5, 4, 0, 5, 1]

---

System: a variety of test species
Assay: Post-emergence herbicidal activity
Format: in vivo
Conditions: rate 250 g/ha, evaluated after 13 days
Experimental: Seeds of a variety of test species were sown in standard soil in pots. […] After 13 days, the test was evaluated (5=total damage to plant; 0=no damage to plant, NC=not captured).
observation-type: SETFA (Setaria faberi) damage score
Answers are plain numbers.

Please review the entries below; each comes with its answer.
> print(dat)
                                   compound  result.number
1  COC1=C(C)C(=O)N(c2cc(C(F)(F)F)c(OCc3ccco3)cn2)C1O (centres unmarked) [AD86]              3
2  COC1=C(C)C(=O)N(c2cc(C(F)(F)F)c(OCCc3ccsc3)cn2)C1O (centres unmarked) [AD87]              3
3  COC1=C(C)C(=O)N(c2cc(Cl)c(-c3ccccc3)cn2)C1O (centres unmarked) [AD70]              3

Batch request: SETFA (Setaria faberi) damage score for each of the following compounds.
1. COC1=C(C)C(=O)N(c2cc(C(F)(F)F)c(OC3CCC3)cn2)C1O (centres unmarked) [AD75]
2. COC1=C(C)C(=O)N(c2cc(C(F)(F)F)c(OCCc3ccccc3)cn2)C1O (centres unmarked) [AD85]

Ans.
4
4

---

system: a variety of test species; test: Post-emergence herbicidal activity; assay type: in vivo; set-up: key: 0 = no damage to plant, 5 = total damage to plant; conditions: rate 250 g/ha, evaluated after 13 days
observation-type: ZEAMX (Zea mays) damage score
Numbers only.

> print(dat)
                                   molecule  result.number
1  COC1=C(C)C(=O)N(c2cc(C(F)(F)F)c(OCCOCc3ccccc3)cn2)C1O (centres unmarked)              1
2  COC1=C(C)C(=O)N(c2cc(C(F)(F)F)c(OCCc3ccsc3)cn2)C1O (centres unmarked)              1
3  COC1=C(C)C(=O)N(c2cc(C(F)(F)F)c(OCc3ccco3)cn2)C1O (centres unmarked)              0
4  C=C(C)COc1cnc(N2C(=O)C(C)=C(OC)C2O)cc1C(F)(F)F (centres unmarked)              0
5  COC1=C(C)C(=O)N(c2cc(Cl)c(-c3ccccc3)cn2)C1O (centres unmarked)              1

Here are 3 molecules. What values of ZEAMX (Zea mays) damage score were reported for them?
1. COC1=C(C)C(=O)N(c2cc(C(F)(F)F)c(OCCc3ccccc3)cn2)C1O (centres unmarked)
2. COC1=C(C)C(=O)N(c2cc(C(F)(F)F)c(OC3CCC3)cn2)C1O (centres unmarked)
3. COC1=C(C)C(=O)N(c2cc(C(F)(F)F)c(OCCc3cccs3)cn2)C1O (centres unmarked)

Ans.
1
1
1
